Biological target: T1, cyno PD-1 (SPR analyte) (cynomolgus monkey)
T1 construct: Construct of the soluble analyte is not described; also called cynomolgus PD-1
Assay: SPR, ProteOn XPR36, mAb captured by anti-human IgG Fc, cyno PD-1 as analyte, 25 C
Each entry below carries its reported koff.
All answers are understood in s⁻¹, so give the number only.

Below, 2 binders whose answers are already recorded.
In: Which value of koff has been reported for PD1B1089 (antibody, human IgG1, kappa, V domains shown, IgG1; also called PD1H405/PD1L652; S30P (VL) variant of PD1B878) VH: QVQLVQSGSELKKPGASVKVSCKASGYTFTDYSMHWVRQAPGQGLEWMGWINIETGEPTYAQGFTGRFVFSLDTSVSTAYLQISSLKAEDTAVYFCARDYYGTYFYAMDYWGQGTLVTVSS VL: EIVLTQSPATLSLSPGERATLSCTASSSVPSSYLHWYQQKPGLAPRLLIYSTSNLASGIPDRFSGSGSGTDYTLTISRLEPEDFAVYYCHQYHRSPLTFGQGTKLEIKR in the records?
Out: 0.00839

In: Same thing, different binder: PD1B1085 (antibody, human IgG1, kappa, V domains shown, IgG1; also called PD1H585/PD1L469; E57Y (VH) variant of PD1B878) VH: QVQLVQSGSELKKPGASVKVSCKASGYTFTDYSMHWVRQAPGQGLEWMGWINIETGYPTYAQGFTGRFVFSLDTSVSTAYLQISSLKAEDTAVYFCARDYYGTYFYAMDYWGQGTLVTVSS VL: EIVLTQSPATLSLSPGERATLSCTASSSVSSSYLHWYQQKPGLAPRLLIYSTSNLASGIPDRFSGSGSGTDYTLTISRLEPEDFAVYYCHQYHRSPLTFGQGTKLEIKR
Out: 0.00129

Next binder, please.
In: Could you tell me which koff is on file for PD1B1091 (antibody, human IgG1, kappa, V domains shown, IgG1; also called PD1H586/PD1L651; E57H (VH), V29F (VL) variant of PD1B878) VH: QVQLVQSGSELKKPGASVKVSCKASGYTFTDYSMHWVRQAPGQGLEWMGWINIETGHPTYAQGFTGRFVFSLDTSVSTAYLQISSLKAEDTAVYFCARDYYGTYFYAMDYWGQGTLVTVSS VL: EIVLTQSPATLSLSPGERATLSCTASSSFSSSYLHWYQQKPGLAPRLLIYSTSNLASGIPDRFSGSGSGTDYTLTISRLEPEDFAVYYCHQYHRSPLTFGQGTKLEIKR ?
Out: 0.000924
